tested on: phosphorylation of AKT (pAKT) in T47D cells expressing mutant PI3Ka (H1047R); test: In vitro cell pAKT (Ser473) HTRF, T47D cells; type: cell-based; details: Homo sapiens, T47D, 6 h, cellular pAKT, T47D cells, mutant PI3Ka (H1047R), 6 hours; read-out: Avg T-47D IC50
pIC50: −log10 of the molar value.
measurement.type: pIC50

QUERY: Provide value of pIC50 for this record tested with phosphorylation of AKT (pAKT) in T47D cells expressing mutant PI3Ka (H1047R): CCc1ncccc1N1CCN(c2cc3c([C@@H](C)Nc4ccccc4C(=O)O)cc(C)cc3c(=O)n2C)CC1
RESULT: 6.30 to 9.00

QUERY: Form entry - test system: phosphorylation of AKT (pAKT) in T47D cells expressing mutant PI3Ka (H1047R); read-out: pIC50; compound: Cc1cc([C@@H](C)Nc2ccccc2C(=O)O)c2cc(-c3ccc(C(F)(F)F)cn3)n(C)c(=O)c2c1
RESULT: 6.30 to 9.00

QUERY: Missing value: pIC50, phosphorylation of AKT (pAKT) in T47D cells expressing mutant PI3Ka (H1047R), entry Cc1ccc(N2CCN(c3cc4c([C@@H](C)Nc5cccc(F)c5C(=O)O)cc(F)cc4c(=O)n3C)CC2)cn1 . Fill in?
RESULT: 6.30 to 9.00

QUERY: GET /values?readout=pIC50&system=phosphorylation of AKT (pAKT) in T47D cells expressing mutant PI3Ka (H1047R)&item= Cc1cc(C(C)Nc2ccccc2C(=O)O)c2cc(N3Cc4c(F)c(F)c(F)c(F)c4C3)n(C)c(=O)c2c1 (centres unmarked)
RESULT: 5.70 to 6.30

QUERY: Could you share what pIC50 was measured for C[C@@H](Nc1ccccc1C(=O)O)c1cc(F)cc2c(=O)n(C)c(N3CCN(CC(F)(F)F)CC3)cc12 , tested on phosphorylation of AKT (pAKT) in T47D cells expressing mutant PI3Ka (H1047R)?
RESULT: 6.30 to 9.00

Continuing:
QUERY: Please provide the recorded pIC50 for Cc1cc([C@@H](C)Nc2ccccc2C(=O)O)c2cc(-c3ccc(C(C)(C)F)nc3)n(C)c(=O)c2c1 , tested on phosphorylation of AKT (pAKT) in T47D cells expressing mutant PI3Ka (H1047R).
RESULT: 6.30 to 9.00

QUERY: Fill in the recorded pIC50 for this compound, with phosphorylation of AKT (pAKT) in T47D cells expressing mutant PI3Ka (H1047R) as test system: Cc1cc([C@@H](C)Nc2ncccc2C(=O)O)c2cc(N3CCN(CC(F)(F)F)CC3)n(C)c(=O)c2c1
RESULT: 5.70 to 6.30
